Sourced from patent US20240360153A1

Remaining (T = NCF60 min) by entry:
- Assay overview: In vitro microsomal metabolic stability, CD-1 mouse liver microsomes
- Type: in vitro ADME
- Experimental conditions: Mouse liver microsomes, without NADPH regenerating system, 60 min
# value in %; strip the unit string

| Compound | Recorded metric | Measure unit | Numeric value |
| --- | --- | --- | --- |
| CO[C@@H]1CC(C[C@@H](C)[C@@H]2CC[C@H](C)/C=C(\C)[C@@H](O)[C@@H](OC)C(=O)[C@H](C)C[C@H](C)/C=C/C=C/C=C(\C)C(Nc3ccccc3)CC3CC[C@@H](C)[C@@](O)(O3)C(=O)C(=O)N3CCCC[C@H]3C(=O)O2)CC[C@H]1O (some centres unmarked) | Remaining (T = NCF60 min) | % | 92.30 |

Please turn your attention to the following entry.
Prompt: Find the recorded Remaining (T = NCF60 min) belonging to CO[C@H]1C[C@@H]2CC[C@@H](C)[C@@](O)(O2)C(=O)C(=O)N2CCCC[C@H]2C(=O)O[C@H]([C@H](C)C[C@@H]2CC[C@@H](O)[C@H](OC)C2)CC[C@H](C)/C=C(\C)[C@@H](O)[C@@H](OC)C(=O)[C@H](C)C[C@H](C)/C=C/C=C/C=C/1C [32-Deoxo Rapamycin, 32-deoxorapamycin, reference compound] and report it.
Response: 110

###

Reported Vd values for a set of compounds
- Assay overview: Pharmacokinetic studies in male CD-1 mice (plasma, IV and PO)
- Format: in vivo, mouse
- Experimental conditions: male, CD-1, plasma; mouse, IV 2 mg/kg; read-out: Vdss (L/kg), volume of distribution following IV administration
Answer in L/kg, number only, no unit symbol.

| Compound | Recorded metric | Measure unit | Numeric value |
| --- | --- | --- | --- |
| COCCN(c1ccccc1)C1C[C@@H]2CC[C@@H](C)[C@@](O)(O2)C(=O)C(=O)N2CCCC[C@H]2C(=O)OC([C@H](C)CC2CC[C@@H](O)C(OC)C2)CC[C@H](C)/C=C(\C)C(O)C(OC)C(=O)[C@H](C)C[C@H](C)/C=C/C=C/C=C/1C (stereo partly shown) | Vd | L/kg | 0.228 |

Prompt: Field request: Vd | item: CO[C@@H]1C[C@H](C[C@@H](C)[C@@H]2CC[C@H](C)/C=C(\C)[C@@H](O)[C@@H](OC)C(=O)[C@H](C)C[C@H](C)/C=C/C=C/C=C(\C)C(Nc3cnon3)C[C@@H]3CC[C@@H](C)[C@@](O)(O3)C(=O)C(=O)N3CCCCC3C(=O)O2)CC[C@H]1O (stereo partly shown)
Response: 0.475

Prompt: Proceed to CO[C@H]1C[C@@H]2CC[C@@H](C)[C@@](O)(O2)C(=O)C(=O)N2CCCC[C@H]2C(=O)O[C@H]([C@H](C)C[C@@H]2CC[C@@H](OCCO)[C@H](OC)C2)CC(=O)[C@H](C)/C=C(\C)[C@@H](O)[C@@H](OC)C(=O)[C@H](C)C[C@H](C)/C=C/C=C/C=C/1C [RAD001, everolimus, reference compound]
Response: 0.433

Prompt: Quick one: CO[C@@H]1CC(C[C@@H](C)[C@@H]2CC[C@H](C)/C=C(\C)[C@@H](O)[C@@H](OC)C(=O)[C@H](C)C[C@H](C)/C=C/C=C/C=C(\C)C(Nc3ccccc3)CC3CC[C@@H](C)[C@@](O)(O3)C(=O)C(=O)N3CCCC[C@H]3C(=O)O2)CC[C@H]1O (stereo partly shown)
Response: 0.828

###

Documented bioavailability across a set of molecules
- Assay overview: Pharmacokinetic studies in male CD-1 mice (plasma, IV and PO)
- Assay type: in vivo, mouse
- Experimental conditions: male, CD-1, plasma; mouse, PO 10 mg/kg vs IV 2 mg/kg
Respond numerically; units are % and should not be typed.

Prompt: I'd like to know its bioavailability. The molecule in question is CO[C@H]1C[C@@H]2CC[C@@H](C)[C@@](O)(O2)C(=O)C(=O)N2CCCC[C@H]2C(=O)O[C@H]([C@H](C)C[C@@H]2CC[C@@H](OCCO)[C@H](OC)C2)CC(=O)[C@H](C)/C=C(\C)[C@@H](O)[C@@H](OC)C(=O)[C@H](C)C[C@H](C)/C=C/C=C/C=C/1C [RAD001, everolimus, reference compound]
Response: 26

Prompt: Now this one: COCCN(c1ccccc1)C1C[C@@H]2CC[C@@H](C)[C@@](O)(O2)C(=O)C(=O)N2CCCC[C@H]2C(=O)OC([C@H](C)CC2CC[C@@H](O)C(OC)C2)CC[C@H](C)/C=C(\C)C(O)C(OC)C(=O)[C@H](C)C[C@H](C)/C=C/C=C/C=C/1C (some centres unmarked) [Compound 69]
Response: 30.7

###

- Assay overview: In vitro microsomal metabolic stability, human liver microsomes
- Type: in vitro ADME
- Experimental conditions: human, human liver microsomes, pH 7.2
Catalogue of microsomal CLint at 1 µM readings, one per entry.
Provide the reading as a plain figure in µL/min/mg.

| Compound | microsomal CLint at 1 µM / µL/min/mg |
| --- | --- |
| COCCN(c1ccccc1)C1C[C@@H]2CC[C@@H](C)[C@@](O)(O2)C(=O)C(=O)N2CCCC[C@H]2C(=O)OC([C@H](C)CC2CC[C@@H](O)C(OC)C2)CC[C@H](C)/C=C(\C)C(O)C(OC)C(=O)[C@H](C)C[C@H](C)/C=C/C=C/C=C/1C (some centres unmarked) [Compound 69] | 28.3 |

In the following, a different compound is considered.
Prompt: Reported microsomal CLint at 1 µM, compound CO[C@@H]1C[C@H](C[C@@H](C)[C@@H]2CC[C@H](C)/C=C(\C)[C@@H](O)[C@@H](OC)C(=O)[C@H](C)C[C@H](C)/C=C/C=C/C=C(\C)C(Nc3ccc(C)cc3)C[C@@H]3CC[C@@H](C)[C@@](O)(O3)C(=O)C(=O)N3CCCCC3C(=O)O2)CC[C@H]1O (some centres unmarked) [Compound 49] : ____
Response: 66.2

###

- Assay overview: Pharmacokinetic studies in male CD-1 mice (plasma, IV and PO)
- Assay type: in vivo, mouse
- Experimental conditions: male, CD-1; mouse plasma, PO 20 mg/kg; read-out: Compound concentration at 24-hour, PO administration
Recorded metric: concentration at 24 h (ng/mL)
Use ng/mL as the unit, but write only the number.

| Molecule | concentration at 24 h, ng/mL |
| --- | --- |
| CO[C@@H]1C[C@H](C[C@@H](C)[C@@H]2CC[C@H](C)/C=C(\C)[C@@H](O)[C@@H](OC)C(=O)[C@H](C)C[C@H](C)/C=C/C=C/C=C(\C)C(Nc3cnon3)C[C@@H]3CC[C@@H](C)[C@@](O)(O3)C(=O)C(=O)N3CCCCC3C(=O)O2)CC[C@H]1O (some centres unmarked) [Compound 45] | 239 |

Read the next record carefully.
Prompt: So what's the measured concentration at 24 h for this one? CO[C@@H]1CC(C[C@@H](C)[C@@H]2CC[C@H](C)/C=C(\C)[C@@H](O)[C@@H](OC)C(=O)[C@H](C)C[C@H](C)/C=C/C=C/C=C(\C)C(Nc3ccccc3)CC3CC[C@@H](C)[C@@](O)(O3)C(=O)C(=O)N3CCCC[C@H]3C(=O)O2)CC[C@H]1O (some centres unmarked) [Compound 26]
Response: 184

###

- Test system: S6K1 (Thr389) phosphorylation (mTORC1 activity) in wild-type (WT) 293T cells
- Assay overview: Inhibition of S6K1 (Thr389) phosphorylation in wild-type 293T cells (ELISA)
- Format: cell-based, human
- Experimental conditions: Homo sapiens, HEK-293T, 2 h, wild-type 293T cells, 2 hours treatment
Listed next: entries and their corresponding pIC50.
Expect pIC50 as a plain number equal to -log10 of the molar concentration.

Before answering, review these 4 worked examples.
| Compound | pIC50 |
| --- | --- |
| CO[C@@H]1C[C@H](C[C@@H](C)[C@@H]2CC[C@H](C)/C=C(\C)[C@@H](O)[C@@H](OC)C(=O)[C@H](C)C[C@H](C)/C=C/C=C/C=C(\C)C(Nc3ccc(Cl)cc3)C[C@@H]3CC[C@@H](C)[C@@](O)(O3)C(=O)C(=O)N3CCCCC3C(=O)O2)CC[C@H]1O (stereo partly shown) [Compound 48] | 8.01 |
| CO[C@@H]1C[C@H](C[C@@H](C)[C@@H]2CC[C@H](C)/C=C(\C)[C@@H](O)[C@@H](OC)C(=O)[C@H](C)C[C@H](C)/C=C/C=C/C=C(\C)C(Nc3ccc(C)cc3)C[C@@H]3CC[C@@H](C)[C@@](O)(O3)C(=O)C(=O)N3CCCCC3C(=O)O2)CC[C@H]1O (stereo partly shown) [Compound 49] | 8.02 |
| COCCN(c1ccccc1)C1C[C@@H]2CC[C@@H](C)[C@@](O)(O2)C(=O)C(=O)N2CCCC[C@H]2C(=O)OC([C@H](C)CC2CC[C@@H](O)C(OC)C2)CC[C@H](C)/C=C(\C)C(O)C(OC)C(=O)[C@H](C)C[C@H](C)/C=C/C=C/C=C/1C (stereo partly shown) [Compound 69] | 8.82 |
| COC1C(=O)[C@H](C)C[C@H](C)/C=C/C=C/C=C(\C)C(N(C)S(=O)(=O)c2ccccc2)C[C@@H]2CC[C@@H](C)[C@@](O)(O2)C(=O)C(=O)N2CCCC[C@H]2C(=O)OC([C@H](C)CC2CC[C@@H](O)C(OC)C2)CC[C@H](C)/C=C(\C)C1O (stereo partly shown) [Compound 73] | 8.65 |

Prompt: Any idea what its pIC50 is? The compound is CO[C@@H]1C[C@H](C[C@@H](C)[C@@H]2CC[C@H](C)/C=C(\C)[C@@H](O)[C@@H](OC)C(=O)[C@H](C)C[C@H](C)/C=C/C=C/C=C(\C)C(Nc3cccc(OC(F)(F)F)c3)C[C@@H]3CC[C@@H](C)[C@@](O)(O3)C(=O)C(=O)N3CCCCC3C(=O)O2)CC[C@H]1O (stereo partly shown) [Compound 58]
Response: 8.53

Prompt: One more compound: CO[C@@H]1C[C@H](C[C@@H](C)[C@@H]2CC[C@H](C)/C=C(\C)[C@@H](O)[C@@H](OC)C(=O)[C@H](C)C[C@H](C)/C=C/C=C/C=C(\C)C(Nc3cnon3)C[C@@H]3CC[C@@H](C)[C@@](O)(O3)C(=O)C(=O)N3CCCCC3C(=O)O2)CC[C@H]1O (stereo partly shown) [Compound 45]
Response: 8.08

Prompt: Again, but for CO[C@@H]1C[C@H](C[C@@H](C)[C@@H]2CC[C@H](C)/C=C(\C)[C@@H](O)[C@@H](OC)C(=O)[C@H](C)C[C@H](C)/C=C/C=C/C=C(\C)C(Nc3cccc(C#N)c3)C[C@@H]3CC[C@@H](C)[C@@](O)(O3)C(=O)C(=O)N3CCCCC3C(=O)O2)CC[C@H]1O (stereo partly shown) [Compound 57]
Response: 8.43
